Reference source: paper PMC8704606

Test system: asexual blood stages of Pf W2 (drug resistant)
Assay: SYBR Green I proliferation assay, asexual blood stages, Pf W2
Type: cell-based, Plasmodium falciparum
Settings: Plasmodium falciparum; asexual blood stage Pf W2, multidrug resistant; SYBR Green I, 96 h; ± SEM
Overview of recorded IC50 for various compounds
Endpoint Name: IC50

| Smiles Notation | Endpoint Name | Result |
| --- | --- | --- |
| C[C@H]1[C@H](N2CC[S+]([O-])CC2)O[C@@H]2O[C@@]3(C)CC[C@H]4[C@H](C)CC[C@@H]1[C@@]24OO3 | IC50 | 1.5 nM |
| C[C@H]1[C@H](N2C=CS(=O)(=O)CC2)O[C@@H]2O[C@@]3(C)CC[C@H]4[C@H](C)CC[C@@H]1[C@@]24OO3 | IC50 | 2.26 nM |

###

Overview of recorded Vd for various compounds
Test: Pharmacokinetics and metabolism after iv and po administration
Type: in vivo
Details: male, C57/BL6, mouse, plasma; iv 5 mg/kg; read-out: Vss

| Compound | Vd (L/kg) |
| --- | --- |
| C[C@H]1[C@H](N2CCS(=O)(=O)CC2)O[C@@H]2O[C@@]3(C)CC[C@H]4[C@H](C)CC[C@@H]1[C@@]24OO3 | 3 |
| C[C@H]1[C@H](N2CCSCC2)O[C@@H]2O[C@@]3(C)CC[C@H]4[C@H](C)CC[C@@H]1[C@@]24OO3 [Artemiside 5, Artemiside] | 4.1 |
| C[C@H]1[C@H](N2CC[S+]([O-])CC2)O[C@@H]2O[C@@]3(C)CC[C@H]4[C@H](C)CC[C@@H]1[C@@]24OO3 | 4 |

###

Overview of recorded concentration at 1 h for various compounds
Test: Pharmacokinetics and metabolism after iv and po administration
Format: in vivo
Conditions: male, C57/BL6, mouse, plasma, iv, 5 mg/kg, 1 h after iv 5 mg/kg artemisox 6; read-out: Mean iv circulating concentration

| Smiles Notation | concentration at 1 h |
| --- | --- |
| C[C@H]1[C@H](N2CC[S+]([O-])CC2)O[C@@H]2O[C@@]3(C)CC[C@H]4[C@H](C)CC[C@@H]1[C@@]24OO3 | 663 nM |
| C[C@H]1[C@H](N2CCS(=O)(=O)CC2)O[C@@H]2O[C@@]3(C)CC[C@H]4[C@H](C)CC[C@@H]1[C@@]24OO3 | 659 nM |

###

Assay: Pharmacokinetics and metabolism after iv and po administration
Assay type: in vivo
Settings: male, C57/BL6, mouse, plasma, po, 50 mg/kg, 3 h after po 50 mg/kg artemisone 7; read-out: Mean po circulating concentration
Protocol: The plasma concentration-time profiles of the parent compounds and metabolites after administration iv and po to male C57/BL6 mice are presented in Figure 2, Figure 3 and Figure 4. Artemiside was quantifiable up to 24 h in all mice dosed iv and up to 7 h po (lower limit of quantitation LLOQ = 1.6 ng/mL or 0.004 μM) (Figure 2). […] For both artemiside and artemisox, the metabolite artemisone was quantifiable up to 3 h in both the po and iv groups (Figure 2 and Figure 3). […]
Endpoint Name: concentration at 3 h (nM)

| Smiles Notation | Recorded Number |
| --- | --- |
| C[C@H]1[C@H](N2CCS(=O)(=O)CC2)O[C@@H]2O[C@@]3(C)CC[C@H]4[C@H](C)CC[C@@H]1[C@@]24OO3 | 12 |
